Exercise: for every item that follows, state its recorded kinase still bound, per cent of control.
Target: TYRO3 (human) (UniProt Q06418)
Sequence (Q06418 whole entry, looked up): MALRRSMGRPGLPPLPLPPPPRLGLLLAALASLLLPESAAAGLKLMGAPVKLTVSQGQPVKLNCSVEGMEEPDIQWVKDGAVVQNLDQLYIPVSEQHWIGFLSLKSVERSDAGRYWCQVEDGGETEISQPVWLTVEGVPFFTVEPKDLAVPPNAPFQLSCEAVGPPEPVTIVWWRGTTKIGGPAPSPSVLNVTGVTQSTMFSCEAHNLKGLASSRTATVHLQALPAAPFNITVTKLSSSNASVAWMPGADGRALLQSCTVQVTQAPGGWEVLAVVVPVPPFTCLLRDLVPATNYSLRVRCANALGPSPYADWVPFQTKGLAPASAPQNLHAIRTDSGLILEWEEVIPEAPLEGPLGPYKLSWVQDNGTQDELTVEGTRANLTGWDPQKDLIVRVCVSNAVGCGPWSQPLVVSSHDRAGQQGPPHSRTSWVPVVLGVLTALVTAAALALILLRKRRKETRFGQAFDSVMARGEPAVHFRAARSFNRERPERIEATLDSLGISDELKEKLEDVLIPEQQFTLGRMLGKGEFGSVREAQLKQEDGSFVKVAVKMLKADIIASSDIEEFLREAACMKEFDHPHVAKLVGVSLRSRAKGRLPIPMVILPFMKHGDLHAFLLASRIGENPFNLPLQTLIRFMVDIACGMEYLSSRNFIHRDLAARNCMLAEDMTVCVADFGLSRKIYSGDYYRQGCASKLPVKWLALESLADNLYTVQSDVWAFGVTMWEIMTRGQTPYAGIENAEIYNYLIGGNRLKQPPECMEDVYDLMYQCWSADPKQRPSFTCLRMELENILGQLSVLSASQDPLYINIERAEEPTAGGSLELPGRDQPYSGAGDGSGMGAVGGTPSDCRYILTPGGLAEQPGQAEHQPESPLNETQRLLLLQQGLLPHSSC
Assay: KINOMEscan competition binding
Details: compound 10.0 µM
Give the number; % is assumed, so skip it.

Q) Which kinase still bound, per cent of control value belongs to CCCS(=O)(=O)Nc1ccc(F)c(C(=O)c2c[nH]c3ncc(Cl)cc23)c1F ?
A) 100

Q) Requested read-out: kinase still bound, per cent of control. Entry: CCN(CCO)CCCOc1ccc2c(Nc3cc(CC(=O)Nc4cccc(F)c4)[nH]n3)ncnc2c1
A) 100

Q) Consider the compound shown here: COc1cc(C)c(Sc2cnc(NC(=O)c3ccc(CNC(C)C(C)C)cc3)s2)cc1C(=O)N1CCN(C(C)=O)CC1 (stereo not given) What is its recorded kinase still bound, per cent of control?
A) 100

Q) Request the reported kinase still bound, per cent of control associated with COc1cc2c(Nc3ccc(NC(=O)c4ccccc4)cc3)ncnc2cc1OCCCN1CCOCC1
A) 60

Q) May I ask what kinase still bound, per cent of control has been recorded for CC1=C(C(=O)Nc2cc3cn[nH]c3cc2F)C(c2ccc(C(F)(F)F)cc2)CC(=O)N1 (stereo not given) ?
A) 100

Q) Report kinase still bound, per cent of control for N#Cc1cc(-c2ccnc(Nc3ccc(-n4cnc(-c5cccnc5)n4)cc3)n2)cc(N2CCOCC2)c1 please.
A) 87

Q) I'd like to know its kinase still bound, per cent of control. The compound in question is CC(=O)c1c(C)c2cnc(Nc3ccc(N4CCNCC4)cn3)nc2n(C2CCCC2)c1=O
A) 93

Q) # get_value(readout='kinase still bound, per cent of control', item= O=c1[nH]c2ccccc2n1C1CCN(Cc2ccc(-c3nc4cc5[nH]cnc5cc4nc3-c3ccccc3)cc2)CC1 )
A) 73

Q) Need kinase still bound, per cent of control, item COc1cc(N2CCC(C(N)=O)CC2)ccc1Nc1nc(N)c(Cl)c(Nc2ccccc2S(=O)(=O)C(C)C)n1
A) 100

Q) Looking for the measured kinase still bound, per cent of control of N#C/C(=C1/Nc2ccccc2S1)c1ccnc(NCCc2cccnc2)n1 , can you help?
A) 100

---

Can you tell me kinase still bound, per cent of control for the items I'm about to list?
Molecular target: UniProt:P22607
Sequence (P22607 whole entry, looked up): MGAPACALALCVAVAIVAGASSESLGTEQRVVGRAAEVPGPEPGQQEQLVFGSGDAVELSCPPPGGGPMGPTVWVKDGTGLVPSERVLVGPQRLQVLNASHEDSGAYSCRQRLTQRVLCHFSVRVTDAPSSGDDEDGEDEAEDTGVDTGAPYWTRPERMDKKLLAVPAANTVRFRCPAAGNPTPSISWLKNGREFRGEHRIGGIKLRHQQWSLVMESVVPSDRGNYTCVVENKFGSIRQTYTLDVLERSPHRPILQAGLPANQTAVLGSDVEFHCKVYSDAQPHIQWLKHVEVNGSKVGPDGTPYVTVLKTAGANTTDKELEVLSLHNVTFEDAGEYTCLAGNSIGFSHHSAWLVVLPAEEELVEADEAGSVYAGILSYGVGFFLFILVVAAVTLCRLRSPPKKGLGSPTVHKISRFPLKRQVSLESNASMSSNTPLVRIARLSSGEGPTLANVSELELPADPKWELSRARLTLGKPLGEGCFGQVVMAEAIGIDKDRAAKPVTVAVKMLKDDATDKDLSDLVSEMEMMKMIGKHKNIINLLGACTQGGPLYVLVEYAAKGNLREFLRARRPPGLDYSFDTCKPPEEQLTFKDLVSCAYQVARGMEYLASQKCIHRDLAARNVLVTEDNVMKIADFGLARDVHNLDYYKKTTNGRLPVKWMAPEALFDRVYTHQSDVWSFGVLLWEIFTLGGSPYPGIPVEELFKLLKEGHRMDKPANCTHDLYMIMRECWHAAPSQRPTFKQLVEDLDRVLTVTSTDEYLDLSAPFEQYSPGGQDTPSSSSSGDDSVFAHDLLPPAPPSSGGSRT
Test: KINOMEscan competition binding
Settings: compound 10.0 µM
Could you give me the number in %? Just the number is fine.

Q) Quick one: kinase still bound, per cent of control for CC1=C(C(=O)Nc2cc3cn[nH]c3cc2F)C(c2ccc(C(F)(F)F)cc2)CC(=O)N1 (stereo not drawn) ?
A) 81

Q) Which measured kinase still bound, per cent of control value corresponds to N#C/C(=C1/Nc2ccccc2S1)c1ccnc(NCCc2cccnc2)n1 ?
A) 92

Q) Item under review: O=c1[nH]c2ccccc2n1C1CCN(Cc2ccc(-c3nc4cc5[nH]cnc5cc4nc3-c3ccccc3)cc2)CC1 . Reported kinase still bound, per cent of control?
A) 92

Q) Entry CCc1nc(-c2cccc(C)c2)c(-c2ccnc(NC(=O)c3ccccc3)c2)s1 : reported kinase still bound, per cent of control = ?
A) 86

Q) Dear colleague, I am looking for the recorded kinase still bound, per cent of control of the following molecule: CCOc1cc(N2CCC(O)CC2)ccc1Nc1ncc2c(n1)N(C)c1ccccc1C(=O)N2C
A) 100

Q) Would you mind telling me what kinase still bound, per cent of control value was observed for COc1cc2c(Nc3ccc(NC(=O)c4ccccc4)cc3)ncnc2cc1OCCCN1CCOCC1 ?
A) 67

Q) What value of measured kinase still bound, per cent of control is listed for Cc1cn(-c2cc(C(=O)Nc3ccc(C)c(NC(=O)c4ccno4)c3)cc(C(F)(F)F)c2)cn1 ?
A) 100

Q) Which measured kinase still bound, per cent of control value corresponds to C=CC(=O)Nc1ccc(C(=O)c2sc(Nc3ccc(N4CCN(C)CC4)cc3OC)nc2N)cc1 ?
A) 78

Entry source: the kinase profiling compilation of Christmann-Franck et al. (2016)
